Target: T1, Human CD3eg linker (human)
T1 construct: single-chain construct; also called recombinant human CD3
T1 chain: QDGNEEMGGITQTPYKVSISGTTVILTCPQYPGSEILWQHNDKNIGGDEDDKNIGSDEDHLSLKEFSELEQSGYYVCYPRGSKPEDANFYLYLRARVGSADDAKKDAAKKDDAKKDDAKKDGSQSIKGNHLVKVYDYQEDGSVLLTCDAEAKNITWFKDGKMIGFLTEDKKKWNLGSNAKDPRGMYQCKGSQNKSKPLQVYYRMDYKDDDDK
Assay: SPR, vs unmutated H183/L072
fold change of affinity reference
Response body: numeric value in fold, unit text excluded.

{"columns": ["BINDER", "PROPERTY", "ASSAY_RESULT"],
 "data": [
  ["dBBDu183H V100iE/dBBDu072L (antibody, name in Kabat numbering, V domains shown) VH: QVQLVESGGGLVQPGRSLRLSCAASGFTFSNAWMHWVRQAPGKGLEWVAQIKDKGNAYAAYYAPSVKGRFTISRDDSKNSIYLQMNSLKTEDTAVYYCHYVHYASASTVLPAFGEDAWGQGTTVTVSS VL: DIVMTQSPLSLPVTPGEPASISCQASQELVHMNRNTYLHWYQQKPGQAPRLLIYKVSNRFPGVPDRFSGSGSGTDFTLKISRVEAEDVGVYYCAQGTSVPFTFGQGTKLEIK", "fold change of affinity", 1.4],
  ["dBBDu183H A100G/dBBDu072L (antibody, name in Kabat numbering, V domains shown) VH: QVQLVESGGGLVQPGRSLRLSCAASGFTFSNAWMHWVRQAPGKGLEWVAQIKDKGNAYAAYYAPSVKGRFTISRDDSKNSIYLQMNSLKTEDTAVYYCHYVHYASGSTVLPAFGVDAWGQGTTVTVSS VL: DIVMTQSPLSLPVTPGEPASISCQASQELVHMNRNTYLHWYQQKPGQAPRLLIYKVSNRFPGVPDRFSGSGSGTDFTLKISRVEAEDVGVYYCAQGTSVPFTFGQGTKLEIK", "fold change of affinity", 1.4],
  ["dBBDu183H A100Q/dBBDu072L (antibody, name in Kabat numbering, V domains shown) VH: QVQLVESGGGLVQPGRSLRLSCAASGFTFSNAWMHWVRQAPGKGLEWVAQIKDKGNAYAAYYAPSVKGRFTISRDDSKNSIYLQMNSLKTEDTAVYYCHYVHYASQSTVLPAFGVDAWGQGTTVTVSS VL: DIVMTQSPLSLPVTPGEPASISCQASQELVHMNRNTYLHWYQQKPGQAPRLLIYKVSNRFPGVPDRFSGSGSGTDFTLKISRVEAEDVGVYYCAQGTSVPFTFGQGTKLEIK", "fold change of affinity", 0.8],
  ["dBBDu183H G100hN/dBBDu072L (antibody, name in Kabat numbering, V domains shown) VH: QVQLVESGGGLVQPGRSLRLSCAASGFTFSNAWMHWVRQAPGKGLEWVAQIKDKGNAYAAYYAPSVKGRFTISRDDSKNSIYLQMNSLKTEDTAVYYCHYVHYASASTVLPAFNVDAWGQGTTVTVSS VL: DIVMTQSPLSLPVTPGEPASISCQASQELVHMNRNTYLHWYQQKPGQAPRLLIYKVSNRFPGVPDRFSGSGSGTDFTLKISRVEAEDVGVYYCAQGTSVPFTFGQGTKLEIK", "fold change of affinity", 0.8],
  ["dBBDu183H P61Q/dBBDu072L (antibody, name in Kabat numbering, V domains shown) VH: QVQLVESGGGLVQPGRSLRLSCAASGFTFSNAWMHWVRQAPGKGLEWVAQIKDKGNAYAAYYAQSVKGRFTISRDDSKNSIYLQMNSLKTEDTAVYYCHYVHYASASTVLPAFGVDAWGQGTTVTVSS VL: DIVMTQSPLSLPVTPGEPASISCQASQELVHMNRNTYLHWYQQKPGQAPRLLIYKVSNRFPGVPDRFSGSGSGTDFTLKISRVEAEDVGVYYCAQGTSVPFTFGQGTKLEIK", "fold change of affinity", 1.8]
]}

Prompt line: # get_value(readout='fold change of affinity', item= dBBDu183H Y94F/dBBDu072L (antibody, name in Kabat numbering, V domains shown) VH: QVQLVESGGGLVQPGRSLRLSCAASGFTFSNAWMHWVRQAPGKGLEWVAQIKDKGNAYAAYYAPSVKGRFTISRDDSKNSIYLQMNSLKTEDTAVYYCHFVHYASASTVLPAFGVDAWGQGTTVTVSS VL: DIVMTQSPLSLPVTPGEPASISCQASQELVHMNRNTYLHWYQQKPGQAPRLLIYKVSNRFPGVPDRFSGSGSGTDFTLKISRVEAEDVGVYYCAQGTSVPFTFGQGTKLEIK )
Response line: 0.4

Prompt line: # get_value(readout='fold change of affinity', item= dBBDu183H A100fV/dBBDu072L (antibody, name in Kabat numbering, V domains shown) VH: QVQLVESGGGLVQPGRSLRLSCAASGFTFSNAWMHWVRQAPGKGLEWVAQIKDKGNAYAAYYAPSVKGRFTISRDDSKNSIYLQMNSLKTEDTAVYYCHYVHYASASTVLPVFGVDAWGQGTTVTVSS VL: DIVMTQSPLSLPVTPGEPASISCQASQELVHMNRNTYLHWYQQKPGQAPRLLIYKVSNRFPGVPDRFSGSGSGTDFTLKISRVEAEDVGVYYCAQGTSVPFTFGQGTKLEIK )
Response line: 1

Prompt line: # get_value(readout='fold change of affinity', item= dBBDu183H Y97E/dBBDu072L (antibody, name in Kabat numbering, V domains shown) VH: QVQLVESGGGLVQPGRSLRLSCAASGFTFSNAWMHWVRQAPGKGLEWVAQIKDKGNAYAAYYAPSVKGRFTISRDDSKNSIYLQMNSLKTEDTAVYYCHYVHEASASTVLPAFGVDAWGQGTTVTVSS VL: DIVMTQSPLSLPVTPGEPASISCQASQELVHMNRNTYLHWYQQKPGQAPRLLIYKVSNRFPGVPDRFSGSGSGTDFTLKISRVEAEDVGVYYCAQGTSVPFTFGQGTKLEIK )
Response line: 0

Prompt line: # get_value(readout='fold change of affinity', item= dBBDu183H D101Q/dBBDu072L (antibody, name in Kabat numbering, V domains shown) VH: QVQLVESGGGLVQPGRSLRLSCAASGFTFSNAWMHWVRQAPGKGLEWVAQIKDKGNAYAAYYAPSVKGRFTISRDDSKNSIYLQMNSLKTEDTAVYYCHYVHYASASTVLPAFGVQAWGQGTTVTVSS VL: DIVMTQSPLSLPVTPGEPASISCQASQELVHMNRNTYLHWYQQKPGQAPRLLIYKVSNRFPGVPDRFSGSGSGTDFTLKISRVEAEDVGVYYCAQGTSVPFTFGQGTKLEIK )
Response line: 0

Prompt line: # get_value(readout='fold change of affinity', item= dBBDu183H L100dV/dBBDu072L (antibody, name in Kabat numbering, V domains shown) VH: QVQLVESGGGLVQPGRSLRLSCAASGFTFSNAWMHWVRQAPGKGLEWVAQIKDKGNAYAAYYAPSVKGRFTISRDDSKNSIYLQMNSLKTEDTAVYYCHYVHYASASTVVPAFGVDAWGQGTTVTVSS VL: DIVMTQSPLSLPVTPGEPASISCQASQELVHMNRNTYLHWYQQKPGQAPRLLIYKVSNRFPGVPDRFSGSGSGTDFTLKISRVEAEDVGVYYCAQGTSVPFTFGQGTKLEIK )
Response line: 1
